Assay: Dissolubility or compatibility (maximum dissolved concentration, HPLC)
Type: physicochemical
Settings: 25° C., N,N-dimethylformamide
Measured property: Dissolubility, DMF (% by mass)
# unit: % by mass | format: bare number

Please give the documented Dissolubility, DMF of O=C(O)CSc1ccc2c(SCC(=O)O)cccc2c1 [Example 16DCNDSH, 1,6-bis(carboxymethylthio)naphthalene]
61.0

Please give the documented Dissolubility, DMF of C=C(C)C(=O)Sc1ccc2cc(SC(=O)C(=C)C)ccc2c1 [Example 26NDSHMA, 2,6-bis(methacryloylthio)naphthalene]
4.59

Please give the documented Dissolubility, DMF of C=C(C)C(=O)Sc1ccc2ccc(SC(=O)C(=C)C)cc2c1 [Example 27NDSHMA, 2,7-bis(methacryloylthio)naphthalene]
17.5

Please give the documented Dissolubility, DMF of Sc1ccc2cc(S)ccc2c1 [Example 26NDSH, 2,6-naphthalenedithiol]
3.54

Please give the documented Dissolubility, DMF of C=C(C)C(=O)Sc1ccc2c(SC(=O)C(=C)C)cccc2c1 [Example 16NDSHMA, 1,6-bis(methacryloylthio)naphthalene]
59.5

Please give the documented Dissolubility, DMF of Sc1cccc2c(S)cccc12 [Example 15NDSH, 1,5-naphthalenedithiol]
34.4

Please give the documented Dissolubility, DMF of O=C(O)CSc1cccc2c(SCC(=O)O)cccc12 [Example 15DCNDSH, 1,5-bis(carboxymethylthio)naphthalene]
10.1

Please give the documented Dissolubility, DMF of C=C(C)C(=O)Sc1cccc2c(SC(=O)C(=C)C)cccc12 [Example 15NDSHMA, 1,5-bis(methacryloylthio)naphthalene]
13.2

Please give the documented Dissolubility, DMF of Sc1ccc2ccc(S)cc2c1 [Example 27NDSH, 2,7-naphthalenedithiol]
7.75

// data source = patent US20240383845A1
